pKd values for the binders below.
- measured-on: T1, histidine-tagged human Siglec-7 (NovoProtein) (human, UniProt Q9Y286 19-353)
- T1 construct: Bought protein; also called recombinant human Siglec-7; recombinant Siglec-7; not shown: histidine tag
- assay-summary: BLI, antibody captured
pKd: −log10 of the molar value.

{"columns": ["binder", "value-prefix", "pKd"],
 "data": [
  ["S7AB-H8.35 (antibody, V domains shown) VH: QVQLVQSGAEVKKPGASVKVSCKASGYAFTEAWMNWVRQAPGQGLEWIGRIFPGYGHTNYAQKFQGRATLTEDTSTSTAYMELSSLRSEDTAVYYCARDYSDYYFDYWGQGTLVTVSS VL: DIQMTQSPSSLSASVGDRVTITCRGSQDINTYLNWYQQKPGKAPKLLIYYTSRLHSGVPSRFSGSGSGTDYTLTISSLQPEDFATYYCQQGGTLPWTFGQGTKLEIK", "=", 9.22],
  ["S7AB-H8.3 (antibody, V domains shown) VH: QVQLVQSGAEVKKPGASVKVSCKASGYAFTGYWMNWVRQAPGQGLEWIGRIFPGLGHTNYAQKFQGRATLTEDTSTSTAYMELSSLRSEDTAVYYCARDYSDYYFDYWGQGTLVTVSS VL: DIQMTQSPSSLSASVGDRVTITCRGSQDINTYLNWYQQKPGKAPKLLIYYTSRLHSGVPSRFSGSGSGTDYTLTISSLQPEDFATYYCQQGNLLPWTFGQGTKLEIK", "=", 9.53],
  ["S7AB-H8.27 (antibody, V domains shown) VH: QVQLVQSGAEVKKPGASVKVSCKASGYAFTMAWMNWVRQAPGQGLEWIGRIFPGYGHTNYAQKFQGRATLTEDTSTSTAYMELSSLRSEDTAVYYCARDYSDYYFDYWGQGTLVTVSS VL: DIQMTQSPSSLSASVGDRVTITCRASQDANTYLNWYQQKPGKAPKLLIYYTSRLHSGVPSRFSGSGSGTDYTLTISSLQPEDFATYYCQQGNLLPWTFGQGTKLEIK", "=", 10.00],
  ["S7AB-H8.18 (antibody, V domains shown) VH: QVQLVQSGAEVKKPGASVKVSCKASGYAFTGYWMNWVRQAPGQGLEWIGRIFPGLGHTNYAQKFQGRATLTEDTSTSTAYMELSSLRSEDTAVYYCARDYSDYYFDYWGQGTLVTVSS VL: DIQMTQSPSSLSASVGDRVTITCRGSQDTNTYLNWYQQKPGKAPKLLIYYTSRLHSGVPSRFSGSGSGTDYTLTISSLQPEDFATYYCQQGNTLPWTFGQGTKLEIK", "=", 9.15],
  ["S7AB-H8.14 (antibody, V domains shown) VH: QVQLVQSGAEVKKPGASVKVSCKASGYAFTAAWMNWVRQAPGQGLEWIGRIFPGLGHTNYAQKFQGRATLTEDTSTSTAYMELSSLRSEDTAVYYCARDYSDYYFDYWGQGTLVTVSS VL: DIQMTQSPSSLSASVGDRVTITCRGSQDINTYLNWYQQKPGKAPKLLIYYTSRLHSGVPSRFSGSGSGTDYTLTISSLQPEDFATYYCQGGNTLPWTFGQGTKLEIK", "=", 7.27],
  ["S7AB-H8.8 (antibody, V domains shown) VH: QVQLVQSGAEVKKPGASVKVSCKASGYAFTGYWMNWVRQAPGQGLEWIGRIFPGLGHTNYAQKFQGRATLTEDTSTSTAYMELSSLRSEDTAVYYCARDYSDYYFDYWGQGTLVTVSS VL: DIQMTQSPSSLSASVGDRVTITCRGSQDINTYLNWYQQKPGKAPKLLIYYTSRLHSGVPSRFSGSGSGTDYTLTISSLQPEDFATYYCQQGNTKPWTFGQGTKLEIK", "=", 9.43],
  ["S7AB-H8 (antibody, V domains shown, also called parental humanized antibody) VH: QVQLVQSGAEVKKPGASVKISCKASGYAFTNCWMNWVRQAPGQGLEWIGRIFPGNGHTNYAQKFQGRATLTEDTSTSTAYMELSSLRSEDTAVYYCARDYSDYYFDYWGQGTLVTVSS VL: DIQMTQSPSSLSASVGDRVTITCRASQDINTYLNWYQQKPGKAPKLLIYYTSRLHSGVPSRFSGSGSGTDYTLTISSLQPEDFATYYCQQGNTLPWTFGQGTKLEIK", "=", 8.98],
  ["S7AB-H8.17 (antibody, V domains shown) VH: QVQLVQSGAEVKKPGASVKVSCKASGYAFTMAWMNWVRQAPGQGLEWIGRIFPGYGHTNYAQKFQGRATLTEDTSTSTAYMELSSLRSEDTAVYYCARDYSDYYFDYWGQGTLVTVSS VL: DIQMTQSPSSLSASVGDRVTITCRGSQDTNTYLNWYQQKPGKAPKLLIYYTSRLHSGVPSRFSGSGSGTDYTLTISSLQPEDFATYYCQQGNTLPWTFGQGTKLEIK", "=", 9.09],
  ["S7AB-H8.4 (antibody, V domains shown) VH: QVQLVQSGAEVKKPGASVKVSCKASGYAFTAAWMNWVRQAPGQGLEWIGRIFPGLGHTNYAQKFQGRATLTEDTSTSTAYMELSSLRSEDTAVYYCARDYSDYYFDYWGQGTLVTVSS VL: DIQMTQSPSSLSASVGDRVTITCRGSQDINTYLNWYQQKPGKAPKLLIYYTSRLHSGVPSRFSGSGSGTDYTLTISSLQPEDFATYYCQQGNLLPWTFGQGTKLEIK", "=", 9.67],
  ["S7AB-H8.22 (antibody, V domains shown) VH: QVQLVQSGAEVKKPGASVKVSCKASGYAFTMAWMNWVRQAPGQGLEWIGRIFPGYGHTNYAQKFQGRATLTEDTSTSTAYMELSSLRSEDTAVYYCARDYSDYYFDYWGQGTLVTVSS VL: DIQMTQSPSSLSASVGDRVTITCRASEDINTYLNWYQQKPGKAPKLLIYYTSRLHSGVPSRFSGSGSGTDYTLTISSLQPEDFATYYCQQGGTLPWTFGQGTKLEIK", ">", 12.00]
]}
